Below: a set of entries, each annotated with reported pKi.
Biological target: D2 receptor (Chlorocebus aethiops)
Sequence (P52702 whole entry): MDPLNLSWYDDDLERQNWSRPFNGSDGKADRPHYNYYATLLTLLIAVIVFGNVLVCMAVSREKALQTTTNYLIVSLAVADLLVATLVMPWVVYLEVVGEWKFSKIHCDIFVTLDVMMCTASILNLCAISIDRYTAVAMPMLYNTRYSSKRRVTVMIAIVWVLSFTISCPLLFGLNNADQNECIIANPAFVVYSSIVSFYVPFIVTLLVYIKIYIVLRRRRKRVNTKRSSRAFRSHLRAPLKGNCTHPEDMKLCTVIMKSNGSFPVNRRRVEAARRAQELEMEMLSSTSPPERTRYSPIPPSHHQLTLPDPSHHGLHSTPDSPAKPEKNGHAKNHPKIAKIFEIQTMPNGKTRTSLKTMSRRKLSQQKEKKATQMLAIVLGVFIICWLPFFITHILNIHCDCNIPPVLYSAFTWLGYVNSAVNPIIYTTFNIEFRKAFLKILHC
Assay: dopamine D2 receptor binding assay (3H-YM 09151-2)
Settings: 0.5 nM 3H-YM 09151-2; COS cells with recombinantly produced D2 receptors; Table 2: rat striatal homogenates
pKi: −log10 of the molar value. Counter-ions that a name gives are not always drawn.

compound	boundOperator	pKi
c1ccc(-c2ncc(CN3CCN(c4cnc5ccccc5n4)CC3)[nH]2)cc1 [Compound 5]	=	5.69
Fc1ccccc1-c1ncc(CN2CCN(c3ccc4ccccc4n3)CC2)[nH]1 [Compound 3a, oxalate]	=	6.01
c1ccc(-c2ncc(CN3CCN(c4ccc5c(n4)CCCC5)CC3)[nH]2)cc1 [Compound 1a, hydrobromide]	<	6.00
c1ccc(-c2ncc(CN3CCN(c4ccc5ccccc5n4)CC3)[nH]2)cc1 [Compound 2a, hydrobromide]	=	6.11
c1ccc(-c2ncc(CN3CCN(c4ncc5ccccc5n4)CC3)[nH]2)cc1 [Compound 4a]	=	5.57
